# method_summary: recombinant barcode read abundance after kanamycin selection (control-corrected) (log10(CPM+1)); higher = more efficient recombination; sequences stand for … in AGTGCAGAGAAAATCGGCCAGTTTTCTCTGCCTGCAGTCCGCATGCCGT…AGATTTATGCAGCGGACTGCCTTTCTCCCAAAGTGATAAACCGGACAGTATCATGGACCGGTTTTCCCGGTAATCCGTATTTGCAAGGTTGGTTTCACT; site = the 11-nt target;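 further: IS621 recombinase and bridge RNA in Escherichia coli cells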
# label = true if recombinant barcode read abundance (log10) >= 0.07 else false

Ask | Threshold query (recombinant barcode read abundance (log10) >= 0.07) on CGCTGACCTTGGGTTCTAACCTGTTGCCT (site CGCTGACCTAG)
Reply | false

Ask | Please check the record CAGCTACCTTGGGTTCTAACCTGTTGCCT (site CTGCTACCTAG) and state if its recombinant barcode read abundance (log10) is at or above 0.07.
Reply | true

Ask | Does recombinant barcode read abundance (log10) meet or surpass 0.07 for CTAAGTGCTTGGGTTCTAACCTGTTGCCA (site CTAAGGGCTTG) ?
Reply | true

Ask | State whether the measured recombinant barcode read abundance (log10) reaches 0.07, counting equality as reaching it, for ATTACTACTTGGGTTCTAACCTGTTGCCT (site ATTACTACTAG)
Reply | true

Ask | Textbook exercise: given the entry TGTCTGTCTTGGGTTCTAACCTGTTGCTA (site TGTCTGTCTAA) , state whether its recombinant barcode read abundance (log10) is greater than or equal to 0.07.
Reply | false

* * *

# method_summary: recombinant barcode read abundance after kanamycin selection (control-corrected) (log10(CPM+1)); higher = more efficient recombination; sequences stand for … in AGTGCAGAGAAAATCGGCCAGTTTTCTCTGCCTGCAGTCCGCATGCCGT…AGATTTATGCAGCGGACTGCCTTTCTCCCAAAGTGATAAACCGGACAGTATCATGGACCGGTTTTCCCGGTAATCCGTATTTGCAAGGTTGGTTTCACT; site = the 11-nt target
Label label 1 when recombinant barcode read abundance (log10) is at or above 0.1; anything below gets label 0.

Ask | In plain terms: is recorded recombinant barcode read abundance (log10) at least 0.1 for TGGCGTCCTTGGGTTCTAACCTGTTGCCT (site TGGTGTCCTAG) ?
Reply | label 1

Ask | Please check the record CGAGAGACTTGGGTTCTAACCTGTTGCTT (site CGAGAGACTAA) and state if its recombinant barcode read abundance (log10) is at or above 0.1.
Reply | label 1

Ask | State whether the measured recombinant barcode read abundance (log10) reaches 0.1, counting equality as reaching it, for GTGAAGCCTTGGGTTCTAACCTGTTGCCT (site CTGAAGCCTAG)
Reply | label 1

Ask | Evaluate CCACCGACTTGGGTTCTAACCTGTTGCCT (site CCACCGACTAG) : recombinant barcode read abundance (log10) at minimum 0.1?
Reply | label 0

Ask | Please check the record CGACAGGCTTGGGTTCTAACCTGTTGCCT (site CGACAGGCTAG) and state if its recombinant barcode read abundance (log10) is at or above 0.1.
Reply | label 1

Ask | Could you verify whether the entry CCAAGCACTTGGGTTCTAACCTGTTGCCT (site CCAAGCGCTAG) shows recombinant barcode read abundance (log10) of no less than 0.1?
Reply | label 0

Ask | Textbook exercise: given the entry CCGCATACTTGGGTTCTAACCTGTTGCCT (site CAGCATACTAG) , state whether its recombinant barcode read abundance (log10) is greater than or equal to 0.1.
Reply | label 0

Ask | Can CTAAATACTTGGGTTCTAACCTGTTGCCT (site CTAAATACTTA) be said to have recombinant barcode read abundance (log10) at or above 0.1?
Reply | label 0

Ask | Reported recombinant barcode read abundance (log10) reaches at least 0.1 for GGTGCGGCTTGGGTTCTAACCTGTTGCCT (site TGTGCGGCTAG) ?
Reply | label 1

Ask | Tell me whether recombinant barcode read abundance (log10) is at least 0.1 here: GGTCGTACTTGGGTTCTAACCTGTTGCCT (site CCGTTGTCTTA)
Reply | label 1

Ask | Given the entry GGGCAGCCTTGGGTTCTAACCTGTTGCCT (site GGGCAACCTAC) , answer whether its recombinant barcode read abundance (log10) meets or surpasses 0.1.
Reply | label 0

Ask | Please check the record TCCCCGACTTGGGTTCTAACCTGTTGCCG (site TCCCCGACTCG) and state if its recombinant barcode read abundance (log10) is at or above 0.1.
Reply | label 1

Ask | Hi team, for TCTAAGTCTTGGGTTCTAACCTGTTGCCG (site TCTAAGTCTGG) , is the recorded recombinant barcode read abundance (log10) at or above 0.1?
Reply | label 0

Ask | API: above_or_equal(metric=recombinant barcode read abundance (log10), cutoff=0.1) for item ACTTTAACTTGGGTTCTAACCTGTTGCTT (site ACTATAACTAA)
Reply | label 1

Ask | Is it the case that GCTGAGGCTTGGGTTCTAACCTGTTGCTG (site TCTGAGTCTCA) has recombinant barcode read abundance (log10) reaching or exceeding 0.1?
Reply | label 1

Ask | Could you tell me if the measured recombinant barcode read abundance (log10) of TAACTGTCTTGGGTTCTAACCTGTTGCTT (site CCGTCTACTTG) reaches 0.1 or more?
Reply | label 1

Ask | Please check the record CTCCATTCTTGGGTTCTAACCTGTTGCCT (site CTCCATCCTAG) and state if its recombinant barcode read abundance (log10) is at or above 0.1.
Reply | label 1

Ask | Does recombinant barcode read abundance (log10) meet or surpass 0.1 for ACAATGTCTTGGGTTCTAACCTGTTGCGG (site ACACTGTCTCC) ?
Reply | label 1

Ask | Does recombinant barcode read abundance (log10) meet or surpass 0.1 for CGGGGTCCTTGGGTTCTAACCTGTTGCTA (site CGGGGTCCTTA) ?
Reply | label 1

Ask | Answer whether recombinant barcode read abundance (log10) of GGCTAGACTTGGGTTCTAACCTGTTGCGG (site GGCTAGACTCC) is greater than or equal to 0.1.
Reply | label 1

Ask | For this sequence, is measured recombinant barcode read abundance (log10) 0.1 or higher? ACCGAGACTTGGGTTCTAACCTGTTGCCT (site ACCGAGACTAG)
Reply | label 1

Ask | Could you please find out whether AGAGGGTCTTGGGTTCTAACCTGTTGCTT (site CGAGGGTCTAA) has recombinant barcode read abundance (log10) that meets 0.1 or exceeds it?
Reply | label 1

Ask | Given the entry CTAAAGACTTGGGTTCTAACCTGTTGCAC (site CCAAAGACTAT) , answer whether its recombinant barcode read abundance (log10) meets or surpasses 0.1.
Reply | label 0

Ask | Determine whether this sequence has recombinant barcode read abundance (log10) no lower than 0.1: TCTACTTCTTGGGTTCTAACCTGTTGCCT (site TCTACTTCTAG)
Reply | label 1

Ask | Textbook exercise: given the entry CTCCCTGCTTGGGTTCTAACCTGTTGCCT (site GAGGTCCCTCC) , state whether its recombinant barcode read abundance (log10) is greater than or equal to 0.1.
Reply | label 0

Ask | Could you please find out whether TACTAAACTTGGGTTCTAACCTGTTGCCT (site TACTTAACTAG) has recombinant barcode read abundance (log10) that meets 0.1 or exceeds it?
Reply | label 0

Ask | Given TAGAGAGCTTGGGTTCTAACCTGTTGCAG (site TAGGGAGCTAT) , state whether its recombinant barcode read abundance (log10) is at least 0.1.
Reply | label 1

Ask | Please check the record GCCGGGTCTTGGGTTCTAACCTGTTGCTT (site GCAGGGTCTAA) and state if its recombinant barcode read abundance (log10) is at or above 0.1.
Reply | label 1

Ask | Decide: is the reported value of recombinant barcode read abundance (log10) for CGAACCTCTTGGGTTCTAACCTGTTGCCG (site CGAATCCCTCG) equal to or greater than 0.1?
Reply | label 0

Ask | Reported recombinant barcode read abundance (log10) reaches at least 0.1 for TGACTCTCTTGGGTTCTAACCTGTTGCCT (site TGACTCTCTAG) ?
Reply | label 1

Ask | Reported recombinant barcode read abundance (log10) reaches at least 0.1 for AGCGGCCCTTGGGTTCTAACCTGTTGCCT (site AGCGGTCCTAG) ?
Reply | label 0

Ask | Say whether TATCCGACTTGGGTTCTAACCTGTTGCCA (site TATCCGACTAG) shows recombinant barcode read abundance (log10) of 0.1 or more.
Reply | label 1

Ask | Confirm if recombinant barcode read abundance (log10) reported for the sequence CCGATATCTTGGGTTCTAACCTGTTGCCT (site CCGATATCTAG) is 0.1 or above.
Reply | label 1

Ask | Check if recombinant barcode read abundance (log10) >= 0.1 (inclusive). Item: CTATTGTCTTGGGTTCTAACCTGTTGCGT (site CTATTGTCTAC)
Reply | label 1

Ask | Determine whether measured recombinant barcode read abundance (log10) meets or exceeds 0.1 for CCGTCGTCTTGGGTTCTAACCTGTTGCCT (site CCGTCGTCTAG)
Reply | label 1

Ask | Given the entry CGGATGGCTTGGGTTCTAACCTGTTGCCT (site CGGATAGCTAG) , answer whether its recombinant barcode read abundance (log10) meets or surpasses 0.1.
Reply | label 0

Ask | Could you verify whether the entry GGGCCTGCTTGGGTTCTAACCTGTTGCCA (site CTCGACCCTAT) shows recombinant barcode read abundance (log10) of no less than 0.1?
Reply | label 0

Ask | // inclusive: recombinant barcode read abundance (log10) at least 0.1? input: TTCAAGCCTTGGGTTCTAACCTGTTGCGT (site TTCAAGCCTCC)
Reply | label 0

Ask | Check if recombinant barcode read abundance (log10) >= 0.1 (inclusive). Item: AAGGCGCCTTGGGTTCTAACCTGTTGCCT (site ACGGCGCCTAG)
Reply | label 1

Ask | Assess whether reported recombinant barcode read abundance (log10) for ACTTTGCCTTGGGTTCTAACCTGTTGCCT (site ACGTTGCCTAG) sits at 0.1 or higher.
Reply | label 0

Ask | Could you please find out whether GTATCATCTTGGGTTCTAACCTGTTGCCT (site GTATCATCTAG) has recombinant barcode read abundance (log10) that meets 0.1 or exceeds it?
Reply | label 1

Ask | hey, is recombinant barcode read abundance (log10) for this one >= 0.1? ATAGCCACTTGGGTTCTAACCTGTTGCCT (site ATAGCTACTAG)
Reply | label 0
